Assay: Iron excretion (urine and stool) by hypertransfused iron-overloaded rats
Assay type: in vivo, Sprague-Dawley rats
Settings: ip, 100 mg/kg, normalized to molar dose
Reported Iron excreted, NET Urine, per μmole values for the following compounds.
Give a bare numeral; the unit µg/kg/day/µmol is implied.

CCCC(=O)NCCCCCN(OC(=O)CCC)C(=O)CCC(=O)NCCCCCN(OC(=O)CCC)C(=O)CCC(=O)NCCCCCN(OC(=O)CCC)C(C)=O [BDB3, N-Butyroyl-O,O,O-tributyryl deferoxamine]    0.95
CCCCC(=O)NCCCCCN(OC(=O)CCCC)C(=O)CCC(=O)NCCCCCN(OC(=O)CCCC)C(=O)CCC(=O)NCCCCCN(OC(=O)CCCC)C(C)=O [VDV3]    1.13

Challenge: Quick one: Iron excreted, NET Urine, per μmole for CCCCCCCCCCCCCC(=O)NCCCCCN(OC(=O)CC)C(=O)CCC(=O)NCCCCCN(OC(=O)CC)C(=O)CCC(=O)NCCCCCN(OC(=O)CC)C(C)=O [MDP3] ?
Response given: 0.74

Challenge: Quick one: Iron excreted, NET Urine, per μmole for CCC(=O)NCCCCCN(OC(=O)CC)C(=O)CCC(=O)NCCCCCN(OC(=O)CC)C(=O)CCC(=O)NCCCCCN(OC(=O)CC)C(C)=O [PDP3] ?
Response given: 0.89

Challenge: Quick one: Iron excreted, NET Urine, per μmole for CC(=O)N(O)CCCCCNC(=O)CCC(=O)N(O)CCCCCNC(=O)CCC(=O)N(O)CCCCCN [DFO, reference compound] ?
Response given: 0.67

----------
Assay: Iron excretion (urine and stool) by hypertransfused iron-overloaded rats
Format: in vivo, Sprague-Dawley rats
Settings: po, 100 mg/kg, normalized to molar dose
Label class 0 if Iron excreted, GROSS Stool, per μmole falls below 4 µg/kg/day/µmol; label class 1 in every other case.

Please review the following examples before continuing.
CCCC(=O)NCCCCCN(OC(=O)CCC)C(=O)CCC(=O)NCCCCCN(OC(=O)CCC)C(=O)CCC(=O)NCCCCCN(OC(=O)CCC)C(C)=O [BDB3, N-Butyroyl-O,O,O-tributyryl deferoxamine]    class 1
CC(=O)N(O)CCCCCNC(=O)CCC(=O)N(O)CCCCCNC(=O)CCC(=O)N(O)CCCCCN [DFO, reference compound]    class 0

Challenge: Item CCCCC(=O)NCCCCCN(OC(=O)CCCC)C(=O)CCC(=O)NCCCCCN(OC(=O)CCCC)C(=O)CCC(=O)NCCCCCN(OC(=O)CCCC)C(C)=O [VDV3] with Iron excreted, GROSS Stool, per μmole of 4 µg/kg/day/µmol or above?
Response given: class 1

Challenge: Item CCCCCCCCCCCCCC(=O)NCCCCCN(OC(=O)CC)C(=O)CCC(=O)NCCCCCN(OC(=O)CC)C(=O)CCC(=O)NCCCCCN(OC(=O)CC)C(C)=O [MDP3] with Iron excreted, GROSS Stool, per μmole of 4 µg/kg/day/µmol or above?
Response given: class 1

Challenge: Item CCC(=O)NCCCCCN(OC(=O)CC)C(=O)CCC(=O)NCCCCCN(OC(=O)CC)C(=O)CCC(=O)NCCCCCN(OC(=O)CC)C(C)=O [PDP3] with Iron excreted, GROSS Stool, per μmole of 4 µg/kg/day/µmol or above?
Response given: class 0

----------
Experiment: Intraperitoneal LD50 in Swiss-Webster mice
Details: mouse, in vivo, ip
Reported LD50 values for the following compounds.
Give a bare numeral; the unit mg/kg is implied.

CCCCC(=O)NCCCCCN(OC(=O)CCCC)C(=O)CCC(=O)NCCCCCN(OC(=O)CCCC)C(=O)CCC(=O)NCCCCCN(OC(=O)CCCC)C(C)=O [VDV3]    800

Challenge: Quick one: LD50 for CC(=O)N(O)CCCCCNC(=O)CCC(=O)N(O)CCCCCNC(=O)CCC(=O)N(O)CCCCCN [DFO, reference compound] ?
Response given: 800
